Hi there, I'd appreciate the recorded cell viability for every entry that follows.
Tested on: Caco-2
assay-procedure: cell viability relative to DMSO; higher = less toxic
conditions: 72 h; 1000 nM
Answers are plain numbers, in %.

O=C(c1ccc(F)cc1)C1CCN(CCn2c(=S)[nH]c3ccccc3c2=O)CC1 [altanserin]	89

I need cell viability for every entry listed below, if you could help.
1. COc1cc(C(=O)NCc2ccc(OCCN(C)C)cc2)cc(OC)c1OC [trimethobenzamide]
2. O=C(NC(=O)c1c(F)cccc1Cl)NC1c2ccccc2-c2ccccc21 [TMN-355]

Result:
[87.8, 92.1]

----------
Tested on: U2OS
assay-procedure: cell viability relative to DMSO; higher = less toxic
conditions: 72 h; 1 nM
Counter-ions that a name gives are not always drawn.
Hi there, I'd appreciate the recorded cell viability for every entry that follows.
One number for each entry, in %.

Guide cases for cell viability, answers given:
COc1ccccc1-c1c[nH]c2ncc(-c3cncc(C(=O)N(C)C)c3)cc12	95.4
N[C@@H](Cn1ccc(=O)n(Cc2ccccc2C(=O)O)c1=O)C(=O)O	99
CC(C)OC(=O)C(C)(C)Oc1ccc(C(=O)c2ccc(Cl)cc2)cc1 [fenofibrate]	100

I need cell viability for every entry listed below, if you could help.
1. CN[C@@H]1[C@H](O[C@H]2[C@H](O[C@H]3[C@H](O)[C@@H](O)[C@H](N=C(N)N)[C@@H](O)[C@@H]3N=C(N)N)O[C@@H](C)[C@]2(O)C=O)O[C@@H](CO)[C@H](O)[C@H]1O [STREPTOMYCIN SULFATE [5mM; 10% aq DMSO + 5mM ethanolamine]]
2. NCCc1c[nH]c2ccc(O)cc12
3. N[C@@H](CSS(=O)(=O)O)C(=O)O
4. C[C@@H]1CN([C@H]2CC[C@](C#N)(c3ccc(F)cc3)CC2)CC[C@]1(C(=O)O)c1ccccc1
5. CCN(CC)C(=O)N[C@H]1C=C2c3cccc4[nH]cc(c34)C[C@H]2N(C)C1 [lisuride]
6. CN1CCCC(CN2c3ccccc3Sc3ccccc32)C1 (centres undefined)

Result:
1. 98.7
2. 91.3
3. 94.4
4. 97.8
5. 99.9
6. 99.1

----------
Hi there, I'd appreciate the recorded cell viability for every entry that follows.
Test system: U2OS
assay-procedure: cell viability relative to DMSO; higher = less toxic
conditions: 72 h; 1 nM
One number for each entry, in %.

I need cell viability for every entry listed below, if you could help.
1. CC(C)(N)Cc1ccccc1
2. CN(C(=O)Cc1ccccc1)[C@H](CN1CCCC1)c1ccccc1
3. Ic1cc(-c2ccccc2)ncn1

Result:
97.4
95
102

----------
System: Caco-2
assay-procedure: drug sensitivity score (DSS) for viability; higher = more toxic; extreme values may be limits of the assay
conditions: 72 h
Classify as follows. Reported drug sensitivity score greater than or equal to 0.9: class 1. Reported drug sensitivity score below: class 0.

Please review the entries below; each comes with its answer.
CC(C)Oc1ccc2c(=O)c3cc(C(=O)O)ccc3oc2c1	class 0
CC(C)(C)c1ccc(S(=O)(=O)NCc2ccc(C(=O)Nc3cccnc3)cc2)cc1	class 1
Cc1ccc(S(=O)(=O)NC(=O)NN2CC3CCCC3C2)cc1 (stereo unspecified) [gliclazide]	class 0
CC(C)(C#N)c1cc(Cn2cncn2)cc(C(C)(C)C#N)c1	class 0

Okay, now this compound:
Q: Hi, just wondering whether Cc1ccc(C(=O)N(CCCN)[C@@H](c2oc3cc(Cl)ccc3c(=O)c2Cc2ccccc2)C(C)C)cc1 shows drug sensitivity score of 0.9 or higher.
Result: class 1

----------
Hi there, I'd appreciate the recorded cell viability for every entry that follows.
System: Caco-2
assay-procedure: cell viability relative to DMSO; higher = less toxic
conditions: 72 h; 10000 nM
Answers are plain numbers, in %.

C=C(c1ccc(C(=O)O)cc1)c1cc2c(cc1C)C(C)(C)CCC2(C)C [bexarotene]	86.3

I need cell viability for every entry listed below, if you could help.
1. CCCCNc1nc(N)c2[nH]c(=O)n(Cc3ccc(OCCN(C)C)nc3)c2n1 [DSR-6434]
2. O=c1n(CCCN2CCN(c3cccc(Cl)c3)CC2)nc2ccccn12 [trazodone]
3. COc1ccc(CCN(C)CCCN2CCc3cc(OC)c(OC)cc3CC2=O)cc1OC [zatebradine]

Result:
1: 95.9; 2: 96.4; 3: 94.4

I need cell viability for every entry listed below, if you could help.
1. N[C@@H](CSS(=O)(=O)O)C(=O)O [S-sulfo-L-cysteine]
2. Cc1ccccc1CN1C2=NCCN2C(=O)C2=C1CCN(Cc1ccccc1)C2 [TIC10]
3. Cc1ccc2cc(-c3c(C)ccc(C(=O)c4c(-c5ccccc5)n(C)n(-c5ccccc5)c4=O)c3N)ccc2n1 [AMG-PERK-44]
4. CCCCCCCCCCCCCCCC(=O)OC[C@H](COP(=O)([O-])OCC[N+](C)(C)C)OC(=O)CCCCCCCCCCCCCCC [colfosceril-palmitate]
5. CC(C)(N)Cc1ccccc1 [phentermine]
6. c1cnc2c([O][Ga]([O]c3cccc4cccnc34)[O]c3cccc4cccnc34)cccc2c1 [gallium-triquinolin-8-olate]
7. CC(C)c1cccc2c1OC(C(C)C)C(=S)N2CC(=O)O (configuration not stated) [AD-5467]

Result:
[94.2, 103, 97.1, 71.7, 95.8, 6.6, 96.4]

----------
Test system: Caco-2
assay-procedure: cell viability relative to DMSO; higher = less toxic
conditions: 72 h; 10 nM
Hi there, I'd appreciate the recorded cell viability for every entry that follows.
Please don't drop the unit; write it after the number.

COc1ccc2cc(-c3cc(-c4cc(Cl)cc(Cl)c4)nn3[C@@H](C)c3ccc(C(=O)NCCC(=O)O)cc3)ccc2c1 [MK-0893]	93.7%
COc1ccc(Cl)cc1[C@]1(F)C(=O)Nc2cc(C(F)(F)F)ccc21 [flindokalner]	102%
C[N+](C)(C)CCOP(=O)(O)OC[C@H](O)CO [choline-alfoscerate]	101%
Nc1nc(OCC2CCCCC2)c2nc[nH]c2n1 [NU-2058]	94.6%
Cc1nc(-c2cn3c(n2)-c2ccc(-c4cnn(C(C)(C)C(N)=O)c4)cc2OCC3)n(C(C)C)n1 [taselisib]	99.6%
O=C(c1ccc(F)cc1)C1CCN(CCn2c(=S)[nH]c3ccccc3c2=O)CC1 [altanserin]	82.7%

I need cell viability for every entry listed below, if you could help.
1. Cc1nc(C)c(-c2ccc(C3CCC(CC(=O)O)CC3)cc2)nc1C(N)=O (configuration not stated) [AZD7687]
2. Oc1nc(O)c2cn[nH]c2n1 [oxypurinol]
3. CCCCCCCCCCCC1=C(O)C(=O)C=C(O)C1=O [embelin]
4. Cc1ccc2cc(-c3c(C)ccc(C(=O)c4c(-c5ccccc5)n(C)n(-c5ccccc5)c4=O)c3N)ccc2n1 [AMG-PERK-44]
5. Cc1[nH]c(=O)c(C#N)cc1-c1ccc2nccn2c1 [olprinone]
6. CC(C(=O)O)c1ccc2c(c1)CC(=O)c1ccccc1S2 (configuration not stated) [zaltoprofen]

Result:
1: 99.6%; 2: 100%; 3: 97.2%; 4: 90.6%; 5: 99.6%; 6: 93.8%

I need cell viability for every entry listed below, if you could help.
1. CCOC(=O)[C@H](Cc1ccccc1)NC(=O)c1cc(Cl)c(OCCN2CCN(C)CC2)c(Cl)c1O [JTE-607]
2. CN(C(=O)Cc1ccccc1)[C@H](CN1CCCC1)c1ccccc1 [N-MPPP]
3. c1ccc2c(c1)CCCC2C1=NCCN1 (configuration not stated) [tetrahydrozoline]
4. CC(C)(CO)[C@@H](O)C(=O)NCCC(=O)O [pantothenic-acid]
5. CCCCOc1ccc(-c2cncc(C(=O)NCc3cccnc3N3CCOCC3)c2)cc1Cl

Result:
["95.5%", "94.8%", "101%", "97.3%", "104%"]

----------
Hi there, I'd appreciate the recorded cell viability for every entry that follows.
Test system: Vero E6
assay-procedure: cell viability relative to DMSO; higher = less toxic
conditions: 72 h; 100 nM
One number for each entry, in %.

Guide cases for cell viability, answers given:
Cc1cc(C(=O)NOCCO)c(Nc2ccc(I)cc2F)n(C)c1=O	52
C=CC[N+]1([C@H]2C[C@H]3[C@@H]4CC[C@H]5C[C@H](O)[C@@H](N6CCOCC6)C[C@]5(C)[C@H]4CC[C@]3(C)[C@H]2OC(C)=O)CCCC1 [ROCURONIUM BROMIDE]	89.5
CC(C)c1cccc2c1OC(C(C)C)C(=S)N2CC(=O)O (stereo unspecified)	93.5

I need cell viability for every entry listed below, if you could help.
1. CCCCOc1ccc(-c2cncc(C(=O)NCc3cccnc3N3CCOCC3)c2)cc1Cl
2. Cc1cc(C(N)=O)ccc1-n1c(CCC(=O)O)ccc1-c1ccc(-n2ccnc2)cc1
3. CCCn1cnc2c1c(=O)n(CCCCC(C)=O)c(=O)n2C
4. CCN(CC)C(=O)N[C@H]1C=C2c3cccc4[nH]cc(c34)C[C@H]2N(C)C1 [lisuride]
5. Cc1oc2nc3c(c(NC(=O)CN4CCCC4=O)c2c1C)CCCC3
6. CCCCCCCCCCCCCCOC(=O)c1cccnc1 [myristyl-nicotinate]

Result:
1. 100
2. 94.8
3. 92.1
4. 93.5
5. 99.5
6. 97.6

I need cell viability for every entry listed below, if you could help.
1. O=C(C[S+]([O-])Cc1ccco1)NC/C=C\COc1cc(CN2CCCCC2)ccn1 (stereo unspecified)
2. c1ccc2c(c1)CCCC2C1=NCCN1 (stereo unspecified) [tetrahydrozoline]
3. CCCc1nn(C)c2c(=O)[nH]c(-c3cc(S(=O)(=O)N4CCN(C)CC4)ccc3OCC)nc12
4. CC(C)(C)c1ccc(S(=O)(=O)NCc2ccc(C(=O)Nc3cccnc3)cc2)cc1
5. COc1ccc(CCN(C)CCCN2CCc3cc(OC)c(OC)cc3CC2=O)cc1OC
6. Cc1cc(C(=CNc2ccc(Cl)cc2)C(=O)Nc2ccc(Cl)cc2)on1
7. CCCCNc1nc(N)c2[nH]c(=O)n(Cc3ccc(OCCN(C)C)nc3)c2n1

Result:
1: 100; 2: 61.2; 3: 95.1; 4: 106; 5: 93.4; 6: 98.7; 7: 98.8

I need cell viability for every entry listed below, if you could help.
1. Oc1ncnc2[nH]ncc12
2. CC(CCc1ccc(O)cc1)NCC(O)c1ccc(O)cc1 (stereo unspecified)

Result:
1: 92; 2: 101

Data credit: the supplement of paper PMC13380429
